Origin of the recorded values: patent US10946092

Target: T1, hLAG-3-hIg fusion protein (human LAG-3 extracellular domain fused to human Fc); Sino Biological, Cat #: … (human, UniProt P18627 23-450)
T1 construct: extracellular domain; Bought protein; also called LAG3 fusion protein; human LAG3(ECD)-hFc; not shown: human Fc
T1 sequence (looked up): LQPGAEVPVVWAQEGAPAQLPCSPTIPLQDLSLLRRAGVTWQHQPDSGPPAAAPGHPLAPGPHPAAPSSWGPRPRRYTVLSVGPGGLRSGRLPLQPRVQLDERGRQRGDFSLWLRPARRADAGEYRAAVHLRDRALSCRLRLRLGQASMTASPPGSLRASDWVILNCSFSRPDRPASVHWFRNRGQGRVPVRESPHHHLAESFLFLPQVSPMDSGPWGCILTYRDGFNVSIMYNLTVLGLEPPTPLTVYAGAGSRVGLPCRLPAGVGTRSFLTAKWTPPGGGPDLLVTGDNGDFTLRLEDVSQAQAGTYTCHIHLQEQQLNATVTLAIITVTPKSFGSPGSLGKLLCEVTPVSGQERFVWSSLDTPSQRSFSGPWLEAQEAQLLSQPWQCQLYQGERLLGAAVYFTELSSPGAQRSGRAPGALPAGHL
Assay: FACS blocking assay: hLAG-3-hIg preincubated with the antibody, then binding to MHC II on Daudi cells

Binder: humanized antibody 134G10H2L2 (antibody, human IgG4 S228P, kappa, V domains shown, Human IgG4 (S228P)/kappa) VH: EVQLVESGGGLVKPGGSLRLSCAASGFTFSSFGMSWVRQAPGKRLEWVSIISSGGTYTFYPDILKGRFTISRDNAKNSLYLQMNSLRAEDTAVYYCARVYSDYDGRFDYWGQGTLVTVSS VL: DIVMTQSPSSLAVSLGERATINCKSSQSLLNSGNQKNYLAWYQQKPGQPPKLLIYGASTRESGVPDRFSGSGSGTDFTLTISSLQAEDVAVYYCQNDHSYPLTFGAGTKLEIKR
binding result: binds
//
Binder: humanized antibody 134G10H0L0 (antibody, human IgG4 S228P, kappa, V domains shown, Human IgG4 (S228P)/kappa) VH: EVQLVESGGGLVKPGGSLRLSCAASGFTFSSFGMSWVRQAPGKGLEWVSIISSGGTYTFYPDILKGRFTISRDNAKNSLYLQMNSLRAEDTAVYYCARVYSDYDGRFDYWGQGTLVTVSS VL: DIVMTQSPDSLAVSLGERATINCKSSQSLLNSGNQKNYLAWYQQKPGQPPKLLIYGASTRESGVPDRFSGSGSGTDFTLTISSLQAEDVAVYYCQNDHSYPLTFGQGTKLEIKR
binding result: binds
//
Binder: humanized antibody 134G10H3L3 (antibody, human IgG4 S228P, kappa, V domains shown, Human IgG4 (S228P)/kappa) VH: EVQLVESGGGLVKPGGSLRLSCAASGFTFSSFGMSWVRQAPGKRLEWVGIISSGGTYTFYPDILKGRFTISRDNAKNSLYLQMNSLRAEDTAVYYCARVYSDYDGRFDYWGQGTLVTVSS VL: DIVMTQSPSSLAVSLGERATINCKSSQSLLNSGNQKNYLAWYQQKPGQPPKLLIYGASTRESGVPDRFTGSGSGTDFTLTISSLQAEDVAVYYCQNDHSYPLTFGAGTKLEIKR
binding result: binds
//
Binder: humanized antibody 134G10H3L2 (antibody, human IgG4 S228P, kappa, V domains shown, Human IgG4 (S228P)/kappa; also called 134G10H3VL2) VH: EVQLVESGGGLVKPGGSLRLSCAASGFTFSSFGMSWVRQAPGKRLEWVGIISSGGTYTFYPDILKGRFTISRDNAKNSLYLQMNSLRAEDTAVYYCARVYSDYDGRFDYWGQGTLVTVSS VL: DIVMTQSPSSLAVSLGERATINCKSSQSLLNSGNQKNYLAWYQQKPGQPPKLLIYGASTRESGVPDRFSGSGSGTDFTLTISSLQAEDVAVYYCQNDHSYPLTFGAGTKLEIKR
binding result: binds
